Assay: antimalarial activity against Dd2 strain (AID 2302);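 note: 0% = DMSO untreated growth and 100% = chloroquine plus artemisinin killed control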
Settings: P. falciparum Dd2 in RBCs, LDH growth readout, 72 h; at 2 µM
Active and inactive are the calls of the source.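 Rule for the calls: active = growth inhibition above 50% at the single 2 µM test dose, taken to imply half-maximal potency below 2 µM; inactive = the rest.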
// one of True (active), False (inactive), no free text

Cc1ccccc1Nc1cc(Nc2ccccc2C)c2ccccc2n1    True
CCNc1cc(C(=O)N[C@@H](Cc2ccoc2)[C@H](O)CNC(C)CCCC(C)C)cc(N2CCCCS2(=O)=O)c1 (some centres undefined)    True
O=C(c1cc(-c2cccs2)[nH]n1)N1CCN(S(=O)(=O)c2ccc(Cl)s2)CC1    True

Called result for "COCC(=O)Nc1nc2ccccc2[nH]1"
False

Called result for "Cc1cccc2[nH]c(-c3ccc(-c4cccc(CNCc5ccccc5)c4)s3)nc12"
True

====

Assay: antimalarial activity against Dd2 strain (AID 2302);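 note: 0% = DMSO untreated growth and 100% = chloroquine plus artemisinin killed control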
Conditions: P. falciparum Dd2 in RBCs, LDH growth readout, 72 h; at 2 µM; hits give high values
Calls of active or inactive are those of the source.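 The calls were made as follows: active = growth inhibition above 50% at the single 2 µM test dose, taken to imply half-maximal potency below 2 µM; inactive = the rest.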
quantity: growth inhibition

Example entries and their recorded answers appear below.
Cc1c(-c2cccc(Br)c2)[nH]c2nc(N)nc(N)c12    61% (active)
O=C(CC1CCCC1)Nc1ccc2c(c1)CCC2    -2% (inactive)
O=C(O)C[C@H](NC(=O)CCCNC(=O)c1cccc(-c2ccc(Cl)c(Cl)c2)c1)C(=O)O    -4% (inactive)
COc1ccc(C=NNc2cc(C)nc3ccc(C)cc23)c2ccccc12    55% (active)
COc1ccc(C2CC(c3cccs3)=NN2C(=O)COc2cccc3c2CCCC3O)cc1OC (stereo not given)    62% (active)
Cc1cc(-c2nc3ccc(C(=N)N)cc3[nH]2)c(C)cc1-c1nc2ccc(C(=N)N)cc2[nH]1    97% (active)

Give growth inhibition for each listed item.
1. Cc1nc(N)nc(N)c1C#CC1CCCC1
2. CC(C)c1ccc(NC(=O)NCC2CCCN(CCCCCNC(=O)/C=C/c3ccc(Cl)c(Cl)c3)C2)cc1 (stereo not given)
3. OC(CNCc1ccccc1Oc1ccccc1)c1cccc(C(F)(F)F)c1 (stereo not given)
4. O=C(Nc1cccc(-c2ccc(CN3CCCC3)cc2)c1)c1ccc(Cl)cc1

1. 2% (inactive)
2. 6% (inactive)
3. 98% (active)
4. 47% (inactive)

====

Test: inhibition of 3D7 malaria parasite growth – strain 3D7 (AID 2306);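 note: 0% = DMSO wells and 100% = chloroquine plus artemisinin control wells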
Settings: P. falciparum 3D7 erythrocytic growth, LDH absorbance, 72 h; at 2 µM; hits give high values
Activity calls are given as the source filed them. The rule behind the calls is not given here.
I'd appreciate it if you could supply growth inhibition values for the items below.

Give growth inhibition for each listed item.
1. NC1CCN(c2nc(NCCc3ccc(O)cc3)nc(NCc3ccccc3-c3ccc(C(F)(F)F)cc3)n2)CC1
2. Cc1c(NC(=O)COc2ccc(Cl)cc2C(=O)c2cc(F)cc(C(F)(F)F)c2)ccc2ncsc12
3. O=C(/C=C/c1ccc(Cl)c(Cl)c1)N1CCN(C(=O)Nc2cccc(C(F)(F)F)c2)CC1
4. CCOC(=O)[C@H](Cc1cccc2ccccc12)NC(=O)[C@H](CCC(=O)OC(C)(C)C)NC(=O)c1ccc(N(C)Cc2cnc3nc(N)nc(N)c3n2)cc1
5. Cc1c(CCNC(=O)CCCN2CC(C)CC(C)C2)c2ccccc2n1C (centres undefined)
6. CCCCN(CCCC)CCOc1cc2c(cc1OC)CCN2C(=O)/C=C/c1ccccc1Cl
7. Cc1cccc2[nH]c(-c3cccc(-c4ccc(NC(=O)c5cccnc5)cc4)c3)nc12
8. COc1ccc(-c2ccc(NC(=O)c3cccc(Cl)c3)c(F)c2)cc1CNC(C)C

1. 100% (active)
2. 86% (active)
3. 99% (active)
4. 93% (active)
5. 87% (active)
6. 87% (active)
7. 100% (active)
8. 93% (active)

What does the data say about its growth inhibition? Entry: COc1ccc(CN2CCC(CNC(C)c3cccc4ccccc34)CC2)cc1 (centres undefined)
102% (active)

====

Assay: human hepatoma cell viability loss – ATP luminescence, cytotoxicity control for P. falciparum antimalarial project, primary screen (AID 2303);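 note: 0% = DMSO wells and 100% = digitonin-killed cells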
Conditions: HepG2 viability, 24-48 h, at 10 µM
The source made the active and inactive calls.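 Rule for the calls: active = inhibition above 50%; inactive = the rest.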
// one of True (active), False (inactive), no free text

CC(C)CC(=O)N(Cc1ccc(-c2ccc(CNC3Cc4ccccc4C3)cc2)cc1)C1CCNCC1    False

Called result for "CN(C)C(=O)CCCn1c(CNCCCNc2cc(=O)c3ccccc3[nH]2)cc2c(Cl)cc(Cl)cc21"
False

====

Biological target: L-lactate dehydrogenase (Plasmodium falciparum (isolate CDC / Honduras))
Assay: PfLDH activity inhibition – cell lysate, 3D7 strain, counter-screen for P. falciparum growth inhibition project (AID 2304);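 note: 0% = vehicle and 100% = reference inhibitor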
Settings: P. falciparum 3D7 crude extract, LDH APAD/NBT absorbance; at 2 µM; hits give high values
quantity: inhibition (%)
Numbers only, in %.

COc1ccc(Cn2ncc3c4c(N)nc(N)nc4ccc32)cc1OC    3
COc1ccc(N2CCN(CCCC/C=C/c3ccc(NC(=O)c4cc(Cl)cc(Cl)c4)cc3)CC2)c(OC)c1    5
CCCC(C)Nc1nc(C)cc(NCCC(=O)Nc2ccccc2)n1 (stereo not given)    -4
CN1CCC(C(=O)N(Cc2ccc(-c3ccc(CNCCc4ccc(S(C)(=O)=O)cc4)cn3)cc2)Cc2ccc3c(c2)OCO3)CC1    -3
CCN(CC)c1nc(-c2ccccc2)cc(-c2ccccc2)c1C#N    2
O=C(c1cccc(-c2cccc(-c3nc4ccc(F)cc4[nH]3)c2)c1)N1CCCCC1CN1CCC(O)C1 (stereo not given)    -5
COc1ccc2nccc([C@@H](O)CN3CCC(NC(=O)C(c4cc5ccccc5s4)N4CCN(c5ccccc5OC)CC4)CC3)c2c1 (stereo not given in full)    -2
COC(=O)c1cc2cccc(NC[C@@H](C)NC[C@H](O)c3cccc(Cl)c3)c2[nH]1    -3
COc1ccc(Nc2nccc(N3CCC(NC(=O)Nc4cccc(OC)c4)C3)n2)cc1 (stereo not given)    -1
COc1ccc(-n2ccnc2)cc1CNC1CCN(CC2Cn3c(=O)ccc4ccc(F)c2c43)CC1 (stereo not given)    -1

Give inhibition for each listed item.
1. c1ccc(-c2cc(NCCCn3ccnc3)nc(-c3cccnc3)n2)cc1
2. Fc1ccc2nc(-c3ccc(-c4cccc(CN5CCN(CCN6CCOCC6)CC5)c4)cc3)[nH]c2c1
3. O=C(Nc1cccc(CN2CCN(C(=O)c3cccc(F)c3)CC2)c1)c1ccco1
4. Nc1nc(N)c2c(ccc3nn(S(=O)(=O)N4CCCC4)cc32)n1
5. O=C(Nc1ccc(OC2CCN(Cc3ccsc3)CC2)c(Cl)c1)c1cccs1
6. CCCCc1cc(O)c2c(c1)OC(C)(C)C=C2C1=CCN(Cc2ccccc2)CC1
7. COc1ccc(-c2ccc(NC(=O)c3ccc(F)cc3)cc2)cc1CNC(C)C
8. NCc1ccc(-c2ccc3c(N)nccc3c2)cc1

1. 0
2. 4
3. 4
4. 9
5. 1
6. -5
7. 2
8. 0

Give inhibition for each listed item.
1. Cc1[nH]c(C)c(-c2ccc(-c3ccc(OC(F)(F)F)cc3)nc2)c(=O)c1Cl
2. Cc1cc(=O)c(-c2ccc(Oc3cccc(Cl)c3)cc2)c(C)[nH]1

1: -6; 2: 0

====

Test: inhibition of 3D7 malaria parasite growth – strain 3D7 (AID 2306);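 note: 0% = DMSO wells and 100% = chloroquine plus artemisinin control wells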
Settings: P. falciparum 3D7 erythrocytic growth, LDH absorbance, 72 h; at 2 µM; hits give high values
Active and inactive are the calls of the source. How the calls were made is not given here.
quantity: growth inhibition

Example entries and their recorded answers appear below.
O=C(Nc1ccc(CN2CCOCC2)cc1)c1ccc(-c2ccc(Cl)cc2)o1    98% (active)
CCN(CC)C(=NCCCCCCN=C(NC(N)=NCc1ccc(Cl)cc1)N(CC)CC)NC(N)=NCc1ccc(Cl)cc1    100% (active)
CCCCc1ccc(CCNCCCCCCNCCc2ccc(O)c(O)c2)cc1    100% (active)
COc1cc(Cc2cnc(N)nc2N)c2ccsc2c1OC    92% (active)
Clc1ccc(OC2CCC(Cn3ccnc3)(c3ccc(Cl)cc3Cl)CC2)c(Cl)c1 (stereo not given)    98% (active)

Give growth inhibition for each listed item.
1. Cc1cc(C(=O)Nc2ccc(-c3nc4ccccc4[nH]3)cc2)ccc1[N+](=O)[O-]
2. CC(=O)Nc1nc(C(=O)Nc2cccc(-c3cccc(-c4nc5ccc(F)cc5[nH]4)c3)c2)cs1

1: 101% (active); 2: 101% (active)

====

Test: inhibition of 3D7 malaria parasite growth – strain 3D7 (AID 2306);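 note: 0% = DMSO wells and 100% = chloroquine plus artemisinin control wells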
Conditions: P. falciparum 3D7 erythrocytic growth, LDH absorbance, 72 h; at 2 µM; hits give high values
quantity: growth inhibition (%)
Give bare numbers, in %.

CC1(C)N=C(N)N=C(N)N1OCCCCCOc1ccccc1    95
CCc1c[nH]c2c(N3CCCCS3(=O)=O)cc(C(=O)N[C@@H](Cc3ccccc3)[C@H](O)CNCc3cccc(OC)c3)cc12    86
CN1CCC(NCc2ccc(-c3cccc(S(=O)(=O)NCc4ccccc4)c3)cc2)CC1    101
c1cncc(CNc2ncc(-c3ccsc3)c(-c3nccs3)n2)c1    81
COc1cc(Nc2nccc(NCC(O)c3ccc(C(F)(F)F)cc3)n2)cc(OC)c1OC (centres undefined)    91
Cc1nnc2c(NC(=O)NC3CCCC3)cc3ccc(-c4cccc(CN(C)C)c4)cc3n12    90

Give growth inhibition for each listed item.
1. COc1ccc2nccc(N3CCC(NCCNCc4ccc5c(n4)NC(=O)CS5)C3)c2n1 (centres undefined)
2. Cc1cc(NN=Cc2ccccc2[N+](=O)[O-])c2ccc(F)cc2n1
3. O=C(Nc1ccc(OC2CCN(Cc3ccccc3)CC2)c(Cl)c1)c1ccsc1
4. CC(C)(C)c1ccc(CN2CCC(NC(=O)c3ccc(-c4cccc(F)c4)s3)CC2)cc1
5. O=C(Nc1ccccc1F)NC1CCN(c2ccnc(Nc3ccc(F)cc3)n2)C1 (centres undefined)
6. C[C@H](Cc1ccc(OCCCCCCOc2ccc(C[C@@H](C)NC(=O)[C@H](O)c3cccc(Cl)c3)cc2)cc1)NC[C@H](O)c1cccc(Cl)c1

[100, 101, 87, 92, 95, 99]

Give growth inhibition for each listed item.
1. CN(C)C(=O)O[C@@H]1CN[C@H](C#Cc2cc3ncnc(Nc4ccc5c(cnn5Cc5cccc(F)c5)c4)c3s2)C1
2. CCn1c(CN2CCC(C)CC2)nc2cc(NC(=O)c3cccs3)ccc21
3. Cc1ccc(NS(=O)(=O)c2cccs2)cc1-c1cccc(C(=O)Nc2ccc(F)cc2)c1
4. CN1CCN(CCCN(Cc2ccc(-c3cccc(CNCc4ccc5c(c4)OCO5)c3)cc2)C(=O)Nc2ccccc2)CC1
5. CN1CCN(c2ccnc3ccc(NC(=O)Nc4ccc(Cl)c(Cl)c4)cc23)CC1

1. 97
2. 91
3. 99
4. 101
5. 97

Give growth inhibition for each listed item.
1. O=C(Nc1ccc(C(=O)N2CCN(CCN3CCN(c4cccc(C(F)(F)F)c4)CC3)CC2)cc1)c1ccc(C(F)(F)F)cc1
2. Cn1cnnc1Sc1ccc(CN2CCOc3ccc(C4=CCCCC4)cc3C2)o1

1: 95; 2: 98
